test system: Beta-lactamase (Proteus vulgaris); test: Hydrolysis rate by the beta-lactamase from Proteus vulgaris 31 relative to cephaloridine.
parameter: Relative hydrolysis rate

>>> df
                                   compound                     measuredtarget  datavalue
0  CCN1CCN(C(=O)NC(C(=O)NC2C(=O)N3C(C(=O)O)=C(CSc4nnnn4C)COC23)c2ccc(OC(N)=O)cc2)C(=O)C1=O (stereo not drawn)  Beta-lactamase (Proteus vulgaris)         34
1  Cn1nnnc1SCC1=C(C(=O)O)N2C(=O)C(NC(=O)C(O)c3ccccc3)C2OC1 (stereo not drawn)  Beta-lactamase (Proteus vulgaris)        300
2  CCN1CCN(C(=O)NC(C(=O)NC2C(=O)N3C(C(=O)O)=C(CSc4nnnn4C)CSC23)c2ccc(OC(N)=O)cc2)C(=O)C1=O (stereo not drawn)  Beta-lactamase (Proteus vulgaris)         16
3  Cn1nnnc1SCC1=C(C(=O)O)N2C(=O)C(NC(=O)/C(=N\O)c3ccc(NS(C)(=O)=O)cc3)C2OC1 (stereo not drawn)  Beta-lactamase (Proteus vulgaris)        330
4  Cn1nnnc1SCC1=C(C(=O)O)N2C(=O)C(NC(=O)/C(=N\O)c3ccc(NS(C)(=O)=O)cc3)C2SC1 (stereo not drawn)  Beta-lactamase (Proteus vulgaris)        170
5  Cn1nnnc1SCC1=C(C(=O)O)N2C(=O)C(NC(=O)Cc3csc(N)n3)C2OC1 (stereo not drawn)  Beta-lactamase (Proteus vulgaris)        770
6  Cn1nnnc1SCC1=C(C(=O)O)N2C(=O)C(NC(=O)Cc3ccc(O)cc3)C2SC1 (stereo not drawn)  Beta-lactamase (Proteus vulgaris)        410
7  Cn1nnnc1SCC1=C(C(=O)O)N2C(=O)C(NC(=O)Cc3ccc(O)cc3)C2OC1 (stereo not drawn)  Beta-lactamase (Proteus vulgaris)        710

* * *

biological target: Beta-lactamase TEM (Escherichia coli) (UniProt P62593); experiment: Hydrolysis rate by the beta-lactamase from Escherichia coli W3110 RTEM relative to cephaloridine.
Sequence (P62593 whole entry): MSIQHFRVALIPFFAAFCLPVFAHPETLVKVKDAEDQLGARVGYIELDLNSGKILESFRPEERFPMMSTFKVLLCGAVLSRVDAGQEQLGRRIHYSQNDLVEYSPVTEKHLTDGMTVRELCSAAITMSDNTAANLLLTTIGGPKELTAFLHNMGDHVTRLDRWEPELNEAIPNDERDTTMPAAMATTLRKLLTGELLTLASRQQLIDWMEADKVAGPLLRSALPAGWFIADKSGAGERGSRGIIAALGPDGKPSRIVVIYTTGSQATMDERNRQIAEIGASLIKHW
parameter: Relative hydrolysis rate

In [3]: df
Out[3]:
                                    compound                 parameter  datavalue
 0  Cn1nnnc1SCC1=C(C(=O)O)N2C(=O)C(NC(=O)Cc3csc(N)n3)C2OC1 (configuration not stated)  Relative hydrolysis rate        350
 1  Cn1nnnc1SCC1=C(C(=O)O)N2C(=O)C(NC(=O)C(O)c3ccccc3)C2SC1 (configuration not stated)  Relative hydrolysis rate         55
 2  Cc1nnc(SCC2=C(C(=O)O)N3C(=O)C(NC(=O)Cn4cnnn4)C3OC2)s1 (configuration not stated)  Relative hydrolysis rate        620
 3  Cn1nnnc1SCC1=C(C(=O)O)N2C(=O)C(NC(=O)C(C(=O)O)c3ccc(O)cc3)C2OC1 (configuration not stated)  Relative hydrolysis rate         19
 4  Cn1nnnc1SCC1=C(C(=O)O)N2C(=O)C(NC(=O)C(O)c3ccccc3)C2OC1 (configuration not stated)  Relative hydrolysis rate        370
 5  CC1=C(C(=O)O)N2C(=O)C(NC(=O)C(N)c3ccccc3)C2OC1 (configuration not stated)  Relative hydrolysis rate         12
 6  CCN1CCN(C(=O)NC(C(=O)NC2C(=O)N3C(C(=O)O)=C(CSc4nnnn4C)COC23)c2ccc(OC(N)=O)cc2)C(=O)C1=O (configuration not stated)  Relative hydrolysis rate        110
 7  Cn1nnnc1SCC1=C(C(=O)O)N2C(=O)C(NC(=O)Cc3ccc(O)cc3)C2SC1 (configuration not stated)  Relative hydrolysis rate         39
 8  CC1=C(C(=O)O)N2C(=O)C(NC(=O)CSC(F)(F)F)C2OC1 (configuration not stated)  Relative hydrolysis rate         18
 9  Cn1nnnc1SCC1=C(C(=O)O)N2C(=O)C(NC(=O)Cc3csc(N)n3)C2SC1 (configuration not stated)  Relative hydrolysis rate         17
10  Cn1nnnc1SCC1=C(C(=O)O)N2C(=O)C(NC(=O)/C(=N\O)c3ccc(NS(C)(=O)=O)cc3)C2OC1 (configuration not stated)  Relative hydrolysis rate        290
11  Cn1nnnc1SCC1=C(C(=O)O)N2C(=O)C(NC(=O)C(C(=O)O)c3ccc(O)cc3)C2SC1 (configuration not stated)  Relative hydrolysis rate       0.96
12  CC1=C(C(=O)O)N2C(=O)C(NC(=O)CSC(F)(F)F)C2SC1 (configuration not stated)  Relative hydrolysis rate        1.5
13  CC1=C(C(=O)O)N2C(=O)[C@@H](NC(=O)[C@H](N)c3ccccc3)[C@H]2SC1  Relative hydrolysis rate       0.75
14  Cn1nnnc1SCC1=C(C(=O)O)N2C(=O)C(NC(=O)/C(=N\O)c3ccc(NS(C)(=O)=O)cc3)C2SC1 (configuration not stated)  Relative hydrolysis rate         34
15  CCN1CCN(C(=O)NC(C(=O)NC2C(=O)N3C(C(=O)O)=C(CSc4nnnn4C)CSC23)c2ccc(OC(N)=O)cc2)C(=O)C1=O (configuration not stated)  Relative hydrolysis rate         59
16  Cn1nnnc1SCC1=C(C(=O)O)N2C(=O)C(NC(=O)Cc3ccc(O)cc3)C2OC1 (configuration not stated)  Relative hydrolysis rate        560

* * *

target: Beta-lactamase (Escherichia coli K-12) (UniProt P00811); assay: Hydrolysis rate by the beta-lactamase from Escherichia coli 6 relative to cephaloridine.
Sequence (P00811 whole entry): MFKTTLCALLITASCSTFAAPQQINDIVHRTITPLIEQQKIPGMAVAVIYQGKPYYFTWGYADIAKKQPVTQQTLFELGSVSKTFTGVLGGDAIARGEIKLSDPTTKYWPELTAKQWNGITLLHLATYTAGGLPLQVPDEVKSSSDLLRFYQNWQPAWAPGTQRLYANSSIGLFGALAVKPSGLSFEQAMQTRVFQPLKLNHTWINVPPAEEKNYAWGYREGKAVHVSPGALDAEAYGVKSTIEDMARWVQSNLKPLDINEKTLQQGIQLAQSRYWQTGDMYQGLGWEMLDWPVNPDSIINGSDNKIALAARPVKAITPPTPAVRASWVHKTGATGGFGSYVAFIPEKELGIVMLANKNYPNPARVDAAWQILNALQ
The reader will find reported Relative hydrolysis rate values listed item by item below.
parameter: Relative hydrolysis rate

                                   compound                            measuredtarget                 parameter  datavalue
0  Cn1nnnc1SCC1=C(C(=O)O)N2C(=O)C(NC(=O)C(O)c3ccccc3)C2OC1 (stereo not given)  Beta-lactamase (Escherichia coli K-12) (UniProt P00811)  Relative hydrolysis rate         39
1  CCN1CCN(C(=O)NC(C(=O)NC2C(=O)N3C(C(=O)O)=C(CSc4nnnn4C)COC23)c2ccc(OC(N)=O)cc2)C(=O)C1=O (stereo not given)  Beta-lactamase (Escherichia coli K-12) (UniProt P00811)  Relative hydrolysis rate         10
2  Cn1nnnc1SCC1=C(C(=O)O)N2C(=O)C(NC(=O)/C(=N\O)c3ccc(NS(C)(=O)=O)cc3)C2SC1 (stereo not given)  Beta-lactamase (Escherichia coli K-12) (UniProt P00811)  Relative hydrolysis rate        2.2
3  Cn1nnnc1SCC1=C(C(=O)O)N2C(=O)C(NC(=O)Cc3csc(N)n3)C2SC1 (stereo not given)  Beta-lactamase (Escherichia coli K-12) (UniProt P00811)  Relative hydrolysis rate        120
4  Cn1nnnc1SCC1=C(C(=O)O)N2C(=O)C(NC(=O)Cc3ccc(O)cc3)C2OC1 (stereo not given)  Beta-lactamase (Escherichia coli K-12) (UniProt P00811)  Relative hydrolysis rate       1200

* * *

The reader will find reported Relative hydrolysis rate values listed item by item below.
target: Beta-lactamase (Klebsiella oxytoca) (UniProt Q8RT60); experiment: Hydrolysis rate by beta-lactamase of Klebsiella sp. 363 relative to cephaloridine (100)
Sequence (Q8RT60 as listed by the source): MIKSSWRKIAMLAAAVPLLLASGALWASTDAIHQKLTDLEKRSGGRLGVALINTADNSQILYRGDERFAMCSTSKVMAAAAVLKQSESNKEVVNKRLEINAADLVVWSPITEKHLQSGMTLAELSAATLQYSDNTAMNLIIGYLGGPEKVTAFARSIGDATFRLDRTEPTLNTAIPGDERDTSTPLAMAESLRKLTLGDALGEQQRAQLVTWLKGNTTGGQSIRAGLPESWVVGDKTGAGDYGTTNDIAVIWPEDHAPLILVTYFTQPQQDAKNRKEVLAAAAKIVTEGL
parameter: Relative hydrolysis rate

                                   compound  datavalue
0  Cn1nnnc1SCC1=C(C(=O)O)N2C(=O)C(NC(=O)Cc3csc(N)n3)C2OC1 (centres undefined)        240
1  Cc1nnc(SCC2=C(C(=O)O)N3C(=O)C(NC(=O)Cn4cnnn4)C3OC2)s1 (centres undefined)        380
2  Cn1nnnc1SCC1=C(C(=O)O)N2C(=O)C(NC(=O)C(C(=O)O)c3ccc(O)cc3)C2OC1 (centres undefined)         80
3  Cn1nnnc1SCC1=C(C(=O)O)N2C(=O)C(NC(=O)Cc3ccc(O)cc3)C2SC1 (centres undefined)        120
